Subject of test: human TRPM2 (Homo sapiens, UniProt O94759)
Construct: whole-cell patch clamp
Sequence (O94759 whole entry): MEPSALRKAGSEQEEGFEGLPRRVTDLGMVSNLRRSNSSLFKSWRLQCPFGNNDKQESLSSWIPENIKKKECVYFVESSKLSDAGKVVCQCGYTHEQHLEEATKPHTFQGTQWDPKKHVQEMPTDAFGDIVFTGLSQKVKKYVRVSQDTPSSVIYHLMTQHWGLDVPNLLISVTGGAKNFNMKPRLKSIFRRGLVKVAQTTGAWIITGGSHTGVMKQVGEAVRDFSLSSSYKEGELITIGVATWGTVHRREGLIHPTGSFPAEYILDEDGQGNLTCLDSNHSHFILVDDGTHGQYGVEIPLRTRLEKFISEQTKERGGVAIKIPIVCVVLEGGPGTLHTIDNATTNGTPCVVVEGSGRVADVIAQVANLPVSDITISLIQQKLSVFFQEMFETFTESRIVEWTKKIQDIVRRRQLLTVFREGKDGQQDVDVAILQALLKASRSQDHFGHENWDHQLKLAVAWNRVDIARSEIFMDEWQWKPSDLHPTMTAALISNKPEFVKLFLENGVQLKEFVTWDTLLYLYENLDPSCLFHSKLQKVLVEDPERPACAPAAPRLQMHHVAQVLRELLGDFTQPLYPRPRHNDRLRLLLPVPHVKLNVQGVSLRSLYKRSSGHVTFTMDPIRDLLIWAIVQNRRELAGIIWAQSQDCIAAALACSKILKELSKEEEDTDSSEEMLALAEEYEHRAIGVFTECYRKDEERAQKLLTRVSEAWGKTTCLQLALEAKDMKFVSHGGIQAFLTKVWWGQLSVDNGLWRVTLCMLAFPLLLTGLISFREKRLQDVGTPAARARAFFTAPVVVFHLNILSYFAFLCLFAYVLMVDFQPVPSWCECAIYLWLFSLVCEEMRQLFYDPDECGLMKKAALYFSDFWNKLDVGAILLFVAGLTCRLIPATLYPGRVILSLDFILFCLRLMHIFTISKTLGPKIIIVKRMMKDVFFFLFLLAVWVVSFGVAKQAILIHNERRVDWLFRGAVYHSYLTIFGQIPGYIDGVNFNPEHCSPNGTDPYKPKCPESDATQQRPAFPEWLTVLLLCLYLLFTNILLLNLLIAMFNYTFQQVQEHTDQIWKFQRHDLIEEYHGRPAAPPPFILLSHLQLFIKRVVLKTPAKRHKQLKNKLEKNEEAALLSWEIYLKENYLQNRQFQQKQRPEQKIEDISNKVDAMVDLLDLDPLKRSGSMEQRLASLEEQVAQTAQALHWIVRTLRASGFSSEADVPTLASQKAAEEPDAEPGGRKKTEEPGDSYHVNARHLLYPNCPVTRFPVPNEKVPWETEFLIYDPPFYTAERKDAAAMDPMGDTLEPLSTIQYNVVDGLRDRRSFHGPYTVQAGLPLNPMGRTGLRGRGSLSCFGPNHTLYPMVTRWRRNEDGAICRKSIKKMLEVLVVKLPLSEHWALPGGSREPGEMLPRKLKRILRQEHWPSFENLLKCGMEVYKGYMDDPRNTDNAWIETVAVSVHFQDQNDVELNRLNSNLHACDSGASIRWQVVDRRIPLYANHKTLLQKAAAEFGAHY
Protocol description: whole-cell patch clamp, current inhibition
Type: cell-based
pIC50: −log10 of the molar value.
Property: pIC50; scope: individual compounds
Reported property: pIC50

[[record]]
compound = "COC1O[C@H](COP(=O)(O)CP(=O)(O)OC[C@H]2O[C@@H](n3cnc4c(N)nc(N)nc43)[C@@H]3OC(C)(C)O[C@@H]32)[C@H]2OC(C)(C)O[C@@H]12 (stereo partly drawn) [7e]"
subject_of_test = "human TRPM2 (Homo sapiens, UniProt O94759)"
reading = "< 4.00"

[[record]]
compound = "COC1O[C@H](COP(=O)(O)CP(=O)(O)OC[C@H]2O[C@@H](n3cnc4c(N)ncnc43)[C@@H]3OC(C)(C)O[C@@H]32)[C@H]2OC(C)(C)O[C@@H]12 (stereo partly drawn) [7a]"
subject_of_test = "human TRPM2 (Homo sapiens, UniProt O94759)"
reading = "< 4.00"

[[record]]
compound = "COC1O[C@H](COP(=O)(O)C(F)(F)P(=O)(O)OC[C@H]2O[C@@H](n3cnc4c(N)nc(I)nc43)[C@H](O)[C@@H]2O)[C@@H](O)[C@H]1O (stereo partly drawn) [9b]"
subject_of_test = "human TRPM2 (Homo sapiens, UniProt O94759)"
reading = "< 4.00"

[[record]]
compound = "COC1O[C@H](COP(=O)(O)CP(=O)(O)OC[C@H]2O[C@@H](n3cnc4c(N)nc(Br)nc43)[C@@H]3OC(C)(C)O[C@@H]32)[C@H]2OC(C)(C)O[C@@H]12 (stereo partly drawn) [7c]"
subject_of_test = "human TRPM2 (Homo sapiens, UniProt O94759)"
reading = "< 4.00"

[[record]]
compound = "COC1O[C@H](COP(=O)(O)CP(=O)(O)OC[C@H]2O[C@@H](n3cnc4c(N)ncnc43)[C@H](O)[C@@H]2O)[C@H]2OC(C)(C)O[C@@H]12 (stereo partly drawn) [8a]"
subject_of_test = "human TRPM2 (Homo sapiens, UniProt O94759)"
reading = 5.27

[[record]]
compound = "Nc1nc(N)c2ncn([C@@H]3O[C@H](COP(=O)(O)C(F)(F)P(=O)(O)OC[C@H]4OC(O)[C@H](O)[C@@H]4O)[C@@H](O)[C@H]3O)c2n1 (stereo partly drawn) [10k]"
subject_of_test = "human TRPM2 (Homo sapiens, UniProt O94759)"
reading = "< 4.00"


###

Subject of test: human TRPM2 (Homo sapiens)
Construct: whole-cell patch clamp
Protocol description: whole-cell patch clamp, current inhibition
Assay type: cell-based
Experimental setup: compound in intracellular (pipette) solution with 0.1 mM ADPR as activator; room temperature; pH 7.3 inside, 7.4 outside
Reported property: IC50

[[record]]
molecule = "Nc1ncnc2c1ncn2[C@@H]1O[C@H](COP(=O)(O)CP(=O)(O)OC[C@H]2OC(O)[C@H](O)[C@@H]2O)[C@@H](O)[C@H]1O (some centres unmarked) [10a, methylenediphosphoribose adenosine]"
reading = "> 100 µM"

[[record]]
molecule = "Nc1nc(Br)nc2c1ncn2[C@@H]1O[C@H](COP(=O)(O)C(F)(F)P(=O)(O)OC[C@H]2OC(O)[C@H](O)[C@@H]2O)[C@@H](O)[C@H]1O (some centres unmarked) [10n]"
reading = "> 100 µM"

